The measured values listed here are drawn from paper PMC6150246.

- study target: tyrosine kinase
- method description: Tyrosine kinase inhibitory activity assay (self-made ELISA kit)
- run parameters: tyrosine kinase tissue extract, 37 °C 30 min
Below, each entry is listed with its recorded IC50.
A number alone suffices; assume µM.

compound	IC50 [µM]
O=C1Nc2ccccc2/C1=C/[S+]([O-])Cc1cccc(Cl)c1 (centres unmarked) [Compound 6f]	5.96
Cc1ccccc1C[S+]([O-])/C=C1\C(=O)Nc2ccccc21 (centres unmarked) [Compound 6l]	16
O=C1Nc2ccccc2/C1=C/[S+]([O-])Cc1ccc(Br)cc1 (centres unmarked) [Compound 6j]	1.34
O=C1Nc2ccccc2/C1=C/[S+]([O-])Cc1ccccc1Br (centres unmarked) [Compound 6h]	3.52
O=C1Nc2ccccc2/C1=C/[S+]([O-])Cc1ccc(F)cc1 (centres unmarked) [Compound 6d]	9.3
O=C1Nc2ccccc2/C1=C/[S+]([O-])Cc1cccc(F)c1 (centres unmarked) [Compound 6c]	9.32

Entry COc1cccc(C[S+]([O-])/C=C2\C(=O)Nc3ccccc32)c1 (centres unmarked) [Compound 6k] : reported IC50 = ?
2.23

Entry Cc1ccccc1NS(=O)(=O)c1ccc2c(c1)/C(=C/c1nc3ccccc3[nH]1)C(=O)N2 [Indo 5, reference compound] : reported IC50 = ?
11.6

###

- Test system: five human cancer cell lines (HeLa, HepG2, MCF-7, SCC-15, and A549)
- method description: MTS cytotoxicity assay, across the cancer cell line panel
- Format: cell-based
- run parameters: Homo sapiens; average over the cancer cell lines; read-out: average IC50 value (antitumor potential)
- Protocol: To investigate the relationship between anticancer activity and tyrosine kinase inhibitory activity, these compounds were further evaluated for in vitro cytotoxicity against five cancer cell lines (human cervical carcinoma cell line HeLa, human breast carcinoma cell line MCF-7, human liver carcinoma cell line HepG2, human tongue carcinoma cell line SCC-15, and human lung carcinoma A549) using MTS assay. […] Cytotoxic activity was assessed using the standard MTS method by using triplicate assay. […]
pIC50: −log10 of the molar value.
Below, each entry is listed with its recorded pIC50.

compound	observed measurement
O=C1Nc2ccccc2/C1=C/[S+]([O-])Cc1ccc(Br)cc1 (centres unmarked) [Compound 6j]	> 4.40

Please find the next compound below.
Entry O=C1Nc2ccc(Br)cc2/C1=C/[S+]([O-])Cc1ccccc1 (centres unmarked) [Compound 6o] : reported pIC50 = ?
> 4.40
